assay: Plasma pharmacokinetics of OSI-930; assay type: in vivo, human; settings: human, plasma, oral, 50 mg, Cmax, 50 mg once a day (n = 1); day 22, steady state
measured.endpoint: Cmax

# Cmax of O=C(Nc1ccc(OC(F)(F)F)cc1)c1sccc1NCc1ccnc2ccccc12 [OSI-930] = 188 ng/mL

* * *

assay: Plasma pharmacokinetics of OSI-930; assay type: in vivo, human; conditions: human, plasma, oral, 1600 mg, T1/2, 1,600 mg once a day (n = 3); day 22, steady state
measured.endpoint: half-life (h)
Respond with the bare value in h.

# half-life of O=C(Nc1ccc(OC(F)(F)F)cc1)c1sccc1NCc1ccnc2ccccc12 = 12.6
